# reported % of binding of Clone #153 to human P-cadherin-Fc; entries follow
Target: T1, P-cadherin-ECD1-3-Fc protein (human P-cadherin-Fc) (human, UniProt P22223 108-440)
T1 construct: Construct was expressed with signal peptide and pro-peptide (PACE co-transfected to process the propeptide); not shown: hinge and CH2 and CH3 domains of human IgG1
T1 sequence (P22223 108-440): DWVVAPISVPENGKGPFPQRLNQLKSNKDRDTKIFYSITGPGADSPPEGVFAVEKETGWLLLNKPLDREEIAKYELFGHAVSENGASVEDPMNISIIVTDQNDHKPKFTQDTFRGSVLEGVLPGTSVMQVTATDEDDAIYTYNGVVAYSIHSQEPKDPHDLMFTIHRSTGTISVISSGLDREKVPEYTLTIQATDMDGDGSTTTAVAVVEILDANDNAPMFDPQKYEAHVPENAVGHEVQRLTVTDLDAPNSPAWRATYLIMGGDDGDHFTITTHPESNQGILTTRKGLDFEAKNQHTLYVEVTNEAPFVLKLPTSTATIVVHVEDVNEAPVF
Assay: phage scFv ELISA, coated P-cadherin-ECD1-3-Fc
OUTCOME_MEASURE: % of binding of Clone #153 to human P-cadherin-Fc (%)

binder="anti-P-cadherin scFv 153 alanine-mutant L3.10-Ala (scFv, V domains shown, scFv on phage) VH: EVQLVQSGAEVKKPGASVKVSCKASGYTFTSYGISWVRQAPGQGLEWMGWISAYNGNTNYAQKLQGRVTMTTDTSTSTAYMELRSLRSDDTAVYYCATIDTANAFGIWGQGTMVTVSS VL: QSVLTQPPSVSAAPGQKVTISCSGSSSNIGNNYVSWYQQLPGTAPKLLIYDNNKRPSGIPDRFSGSKSGTSATLGITGLQTGDEADYYCGTWDSSLSGAVFGGGTKLTVL" value_observed=141
binder="anti-P-cadherin scFv 153 alanine-mutant L1.7-Ala (scFv, V domains shown, scFv on phage) VH: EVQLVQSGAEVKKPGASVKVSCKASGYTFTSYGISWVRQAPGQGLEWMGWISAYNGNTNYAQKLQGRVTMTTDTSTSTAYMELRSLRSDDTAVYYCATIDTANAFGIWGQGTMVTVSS VL: QSVLTQPPSVSAAPGQKVTISCSGSSSNAGNNYVSWYQQLPGTAPKLLIYDNNKRPSGIPDRFSGSKSGTSATLGITGLQTGDEADYYCGTWDSSLSGVVFGGGTKLTVL" value_observed=108
binder="anti-P-cadherin scFv 153 alanine-mutant L2.5-Ala (scFv, V domains shown, scFv on phage) VH: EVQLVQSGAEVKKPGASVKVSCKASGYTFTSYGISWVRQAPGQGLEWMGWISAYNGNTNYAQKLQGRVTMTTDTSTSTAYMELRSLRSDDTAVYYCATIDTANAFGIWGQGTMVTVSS VL: QSVLTQPPSVSAAPGQKVTISCSGSSSNIGNNYVSWYQQLPGTAPKLLIYDNNKAPSGIPDRFSGSKSGTSATLGITGLQTGDEADYYCGTWDSSLSGVVFGGGTKLTVL" value_observed=170
binder="anti-P-cadherin scFv 153 alanine-mutant L2.1-Ala (scFv, V domains shown, scFv on phage) VH: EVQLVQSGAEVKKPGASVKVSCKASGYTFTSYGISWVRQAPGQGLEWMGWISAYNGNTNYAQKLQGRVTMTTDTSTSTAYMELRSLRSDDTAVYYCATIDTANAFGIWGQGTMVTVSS VL: QSVLTQPPSVSAAPGQKVTISCSGSSSNIGNNYVSWYQQLPGTAPKLLIYANNKRPSGIPDRFSGSKSGTSATLGITGLQTGDEADYYCGTWDSSLSGVVFGGGTKLTVL" value_observed=110
binder="anti-P-cadherin scFv 153 alanine-mutant L1.1-Ala (scFv, V domains shown, scFv on phage) VH: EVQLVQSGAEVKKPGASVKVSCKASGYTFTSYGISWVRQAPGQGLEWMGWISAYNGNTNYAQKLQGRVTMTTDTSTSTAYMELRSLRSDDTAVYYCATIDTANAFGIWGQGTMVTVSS VL: QSVLTQPPSVSAAPGQKVTISCAGSSSNIGNNYVSWYQQLPGTAPKLLIYDNNKRPSGIPDRFSGSKSGTSATLGITGLQTGDEADYYCGTWDSSLSGVVFGGGTKLTVL" value_observed=166
binder="anti-P-cadherin scFv 153 alanine-mutant L1.6-Ala (scFv, V domains shown, scFv on phage) VH: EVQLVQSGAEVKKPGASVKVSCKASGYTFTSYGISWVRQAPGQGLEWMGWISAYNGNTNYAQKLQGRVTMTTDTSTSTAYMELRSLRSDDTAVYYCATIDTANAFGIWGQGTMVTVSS VL: QSVLTQPPSVSAAPGQKVTISCSGSSSAIGNNYVSWYQQLPGTAPKLLIYDNNKRPSGIPDRFSGSKSGTSATLGITGLQTGDEADYYCGTWDSSLSGVVFGGGTKLTVL" value_observed=88
binder="anti-P-cadherin scFv 153 alanine-mutant L1.5-Ala (scFv, V domains shown, scFv on phage) VH: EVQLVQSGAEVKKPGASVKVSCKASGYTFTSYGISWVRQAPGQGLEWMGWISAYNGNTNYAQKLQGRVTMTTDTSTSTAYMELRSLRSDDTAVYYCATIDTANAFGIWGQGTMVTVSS VL: QSVLTQPPSVSAAPGQKVTISCSGSSANIGNNYVSWYQQLPGTAPKLLIYDNNKRPSGIPDRFSGSKSGTSATLGITGLQTGDEADYYCGTWDSSLSGVVFGGGTKLTVL" value_observed=129
binder="anti-P-cadherin scFv 153 alanine-mutant L1.9-Ala (scFv, V domains shown, scFv on phage) VH: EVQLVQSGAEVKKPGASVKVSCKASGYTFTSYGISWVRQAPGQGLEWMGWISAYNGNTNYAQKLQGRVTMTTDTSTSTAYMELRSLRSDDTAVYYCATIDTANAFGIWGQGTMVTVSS VL: QSVLTQPPSVSAAPGQKVTISCSGSSSNIGANYVSWYQQLPGTAPKLLIYDNNKRPSGIPDRFSGSKSGTSATLGITGLQTGDEADYYCGTWDSSLSGVVFGGGTKLTVL" value_observed=129
binder="anti-P-cadherin scFv 153 alanine-mutant L1.4-Ala (scFv, V domains shown, scFv on phage) VH: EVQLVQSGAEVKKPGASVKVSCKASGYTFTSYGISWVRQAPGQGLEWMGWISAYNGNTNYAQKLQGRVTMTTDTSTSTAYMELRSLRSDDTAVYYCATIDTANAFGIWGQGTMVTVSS VL: QSVLTQPPSVSAAPGQKVTISCSGSASNIGNNYVSWYQQLPGTAPKLLIYDNNKRPSGIPDRFSGSKSGTSATLGITGLQTGDEADYYCGTWDSSLSGVVFGGGTKLTVL" value_observed=175
binder="anti-P-cadherin scFv 153 alanine-mutant L3.1-Ala (scFv, V domains shown, scFv on phage) VH: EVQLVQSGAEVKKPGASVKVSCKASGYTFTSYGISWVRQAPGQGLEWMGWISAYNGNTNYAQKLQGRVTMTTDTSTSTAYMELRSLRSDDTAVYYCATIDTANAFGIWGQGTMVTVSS VL: QSVLTQPPSVSAAPGQKVTISCSGSSSNIGNNYVSWYQQLPGTAPKLLIYDNNKRPSGIPDRFSGSKSGTSATLGITGLQTGDEADYYCATWDSSLSGVVFGGGTKLTVL" value_observed=153
